- procedure summary: Viability qHTS for spleen associated tyrosine kinase inhibitor (SYKi) drug resistant MV4-11 cells (AID 1963824); also: nearly all actives have a fitted effect of over 35% in size
- cond: SYKi-resistant MV4-11 viability, CellTiter-Glo, 72 h; series mostly up to 45 µM
Records with an inconclusive call do not appear. Calls of active or inactive are those of the source. Calls follow the shape of the dose curve; as a rule, active = well fitted cell-killing curve with a large enough effect; inconclusive = small, poorly fitted or top-dose-only effect, or effect the other way; inactive = no such curve, though single readings can be large or run the other way.
Just give me one of these, please: active, inactive

Record excerpt, results attached:
c1ccc(N2CCN(CCc3nn[nH]n3)CC2)cc1    inactive
CC(C)C(=O)OCC(=O)[C@@]12O[C@H](C3CCCCC3)O[C@@H]1C[C@H]1[C@@H]3CCC4=CC(=O)C=C[C@]4(C)[C@H]3[C@@H](O)C[C@@]12C    active
CCCN(CCC)C(=O)C(CCC(=O)OCCCN1CCN(CCOC(=O)Cc2c(C)n(C(=O)c3ccc(Cl)cc3)c3ccc(OC)cc23)CC1)NC(=O)c1ccccc1 (stereo not drawn)    active
CC(=O)OC1C(O)C(C)(O)C(/C=C/C(=O)O)C2(C)CCCC(C)(C)C12 (stereo not drawn)    inactive
CCCCCCCCCCCCCCCCOCCCOP(=O)(O)COC(CO)Cn1ccc(N)nc1=O (stereo not drawn)    active

stdin: I would be grateful if you could indicate the recorded call for `CS(=O)(=O)c1ccc(-c2cn3ccccc3n2)cc1` .
stdout: inactive

stdin: Another compound to look at: C=C1C(O)CC2C(C(=O)O)=COC(O[C@@H]3O[C@H](COC(=O)/C=C/c4ccc(O)cc4)[C@@H](O)[C@H](O)[C@H]3O)C12 (stereo partly drawn)
stdout: inactive

stdin: What about this compound? O=C1c2ccccc2-c2nc3nnnn3nc21 (tested in a mixture with another compound)
stdout: active
